This collection of values is drawn from ChEMBL document CHEMBL1201862.

- System: Cytochrome P450 1A2 (Homo sapiens, UniProt P05177);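 further: PubChem cytochrome P450 panel assay, CYP1A2 panel member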
- Sequence (P05177 whole entry): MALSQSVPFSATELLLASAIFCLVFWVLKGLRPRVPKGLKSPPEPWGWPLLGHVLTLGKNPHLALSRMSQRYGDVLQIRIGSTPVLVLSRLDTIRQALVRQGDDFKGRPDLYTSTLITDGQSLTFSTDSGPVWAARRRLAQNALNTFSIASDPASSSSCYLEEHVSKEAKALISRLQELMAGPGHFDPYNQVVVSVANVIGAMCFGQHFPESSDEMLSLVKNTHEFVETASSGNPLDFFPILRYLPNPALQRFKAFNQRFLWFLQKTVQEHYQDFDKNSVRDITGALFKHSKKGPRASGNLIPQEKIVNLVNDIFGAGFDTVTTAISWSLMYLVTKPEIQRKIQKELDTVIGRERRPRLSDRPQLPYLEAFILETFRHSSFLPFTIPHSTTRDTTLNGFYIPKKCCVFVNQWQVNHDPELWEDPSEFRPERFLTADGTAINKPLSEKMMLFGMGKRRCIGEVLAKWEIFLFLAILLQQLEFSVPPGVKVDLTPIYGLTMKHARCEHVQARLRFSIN
Assay Readout: AC50

Illustrative cases are given below, each with its answer.
{"Compound": "O=C(CCS(=O)(=O)c1cccs1)N1CCN(c2ccc(F)cc2)CC1", "System": "Cytochrome P450 1A2 (Homo sapiens, UniProt P05177)", "AC50": "31.6 µM (inconclusive)"}
{"Compound": "O=C(COc1ccc2ccccc2c1)N1CCN(CC2CC3C=CC2C3)CC1 (stereo unspecified)", "System": "Cytochrome P450 1A2 (Homo sapiens, UniProt P05177)", "AC50": "22.4 µM (inconclusive)"}
{"Compound": "N#CCCn1c(=O)c(-c2ccc(F)cc2)nc2cnc(Oc3cccc(Cl)c3)nc21", "System": "Cytochrome P450 1A2 (Homo sapiens, UniProt P05177)", "AC50": "0.501 µM (inconclusive)"}
{"Compound": "O=C(N/N=C/C1CCCCC1)c1ccccn1", "System": "Cytochrome P450 1A2 (Homo sapiens, UniProt P05177)", "AC50": "17.8 µM (inconclusive)"}

Batch: AC50 for all items listed.
1. O=C(O)/C=C/c1cn(-c2ncc(C(F)(F)F)cc2Cl)c2ccccc12
2. Cc1nc2ccccc2c(=O)n1NC(=O)c1ccccc1Cl
3. Cc1ccc2nc(-c3ccccc3)c(CN(C)C)c(O)c2c1
4. Cc1ccc(-c2ccc(=O)n(CC(=O)N3CCN(c4cccc(C)c4)C(C)C3)n2)cc1 (stereo unspecified)
5. O=C(Nc1ncc(Cc2cc(Cl)ccc2Cl)s1)c1ccc([N+](=O)[O-])cc1

Output:
1: 35.5 µM (inconclusive); 2: 15.8 µM (inconclusive); 3: 15.8 µM (inconclusive); 4: 20 µM (inconclusive); 5: 5.62 µM (inconclusive)

Batch: AC50 for all items listed.
1. CCOc1c2ccc(C(=O)NCc3ccco3)cc2nn1CCOC
2. C#CCOC(=O)Nc1ccc(=O)n(Cc2c(Cl)cccc2Cl)c1

Output:
["15.8 µM (inconclusive)", "12.6 µM (inconclusive)"]

* * *

- System: Histone-lysine N-methyltransferase NSD2 (Homo sapiens)
- Sequence (O96028 whole entry): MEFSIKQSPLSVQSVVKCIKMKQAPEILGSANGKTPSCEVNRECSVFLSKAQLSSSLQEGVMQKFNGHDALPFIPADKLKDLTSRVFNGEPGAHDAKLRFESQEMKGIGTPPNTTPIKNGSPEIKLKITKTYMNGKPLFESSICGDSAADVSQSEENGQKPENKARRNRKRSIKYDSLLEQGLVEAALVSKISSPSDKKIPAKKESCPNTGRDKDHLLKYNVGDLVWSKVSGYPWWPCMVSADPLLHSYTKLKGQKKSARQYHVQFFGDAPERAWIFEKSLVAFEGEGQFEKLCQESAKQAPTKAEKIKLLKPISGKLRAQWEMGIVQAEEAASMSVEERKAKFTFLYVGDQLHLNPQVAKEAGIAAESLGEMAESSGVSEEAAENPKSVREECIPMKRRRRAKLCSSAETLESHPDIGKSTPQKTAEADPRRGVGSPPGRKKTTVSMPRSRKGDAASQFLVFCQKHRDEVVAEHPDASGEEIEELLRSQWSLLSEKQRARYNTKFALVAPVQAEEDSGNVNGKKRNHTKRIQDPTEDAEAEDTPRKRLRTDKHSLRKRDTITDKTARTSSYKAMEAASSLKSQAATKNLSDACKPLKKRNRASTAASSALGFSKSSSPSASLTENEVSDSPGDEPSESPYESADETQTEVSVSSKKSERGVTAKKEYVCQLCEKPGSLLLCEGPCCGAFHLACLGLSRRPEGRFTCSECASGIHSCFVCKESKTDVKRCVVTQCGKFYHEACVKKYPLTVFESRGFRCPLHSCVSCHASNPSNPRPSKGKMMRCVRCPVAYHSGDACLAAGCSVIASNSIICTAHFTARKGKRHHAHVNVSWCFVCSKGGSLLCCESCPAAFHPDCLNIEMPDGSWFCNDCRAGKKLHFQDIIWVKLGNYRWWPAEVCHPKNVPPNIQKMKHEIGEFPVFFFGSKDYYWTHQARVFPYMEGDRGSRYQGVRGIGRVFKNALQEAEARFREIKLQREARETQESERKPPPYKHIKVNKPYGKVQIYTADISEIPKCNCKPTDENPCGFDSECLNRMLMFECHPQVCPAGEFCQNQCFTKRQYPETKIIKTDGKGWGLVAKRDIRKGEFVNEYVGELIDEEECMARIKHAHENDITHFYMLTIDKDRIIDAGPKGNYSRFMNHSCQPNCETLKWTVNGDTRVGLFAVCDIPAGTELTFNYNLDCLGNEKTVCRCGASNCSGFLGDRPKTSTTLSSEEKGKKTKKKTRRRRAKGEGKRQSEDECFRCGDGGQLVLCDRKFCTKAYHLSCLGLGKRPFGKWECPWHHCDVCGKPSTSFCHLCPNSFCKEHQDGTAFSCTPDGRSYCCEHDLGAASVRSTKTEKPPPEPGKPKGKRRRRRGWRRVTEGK
- Assay type: biochemical
Active and inactive are the calls of the source.
# valid calls are yes (1) for active, no (0) for inactive; nothing else

Illustrative cases are given below, each with its answer.
{"Smiles Record": "CC(=O)c1c(C)nc(-c2ccc(Cl)cc2)nc1/N=C/N(C)C", "System": "Histone-lysine N-methyltransferase NSD2 (Homo sapiens)", "Assigned Category": "no (0)"}
{"Smiles Record": "NC1=C(Cl)C(=O)c2ccc(S(N)(=O)=O)cc2C1=O", "System": "Histone-lysine N-methyltransferase NSD2 (Homo sapiens)", "Assigned Category": "yes (1)"}
{"Smiles Record": "O=C(Cc1nnc(NC(=O)c2ccccc2)s1)N/N=C\\c1ccc(O)c(O)c1", "System": "Histone-lysine N-methyltransferase NSD2 (Homo sapiens)", "Assigned Category": "yes (1)"}
{"Smiles Record": "O=C(O)CCNc1ccc(NCCC(=O)O)c2c1C(=O)c1ccccc1C2=O", "System": "Histone-lysine N-methyltransferase NSD2 (Homo sapiens)", "Assigned Category": "yes (1)"}
{"Smiles Record": "Cc1cc(/C=C2\\C(=O)NC(=O)N(Cc3ccccc3)C2=O)c(C)n1-c1ccc(Cl)c(C(=O)O)c1", "System": "Histone-lysine N-methyltransferase NSD2 (Homo sapiens)", "Assigned Category": "yes (1)"}
{"Smiles Record": "Cc1c(Cc2ccccc2)c(=O)oc2c(O)c(O)ccc12", "System": "Histone-lysine N-methyltransferase NSD2 (Homo sapiens)", "Assigned Category": "no (0)"}
{"Smiles Record": "Oc1cc2c(cc1O)[C@H]1c3ccc(O)c(O)c3OC[C@@]1(O)C2", "System": "Histone-lysine N-methyltransferase NSD2 (Homo sapiens)", "Assigned Category": "yes (1)"}

Now turn to the next compound.
Task: Could you check what this test reported for c1coc(-c2nc(-c3ccco3)c(-c3ccco3)nc2-c2ccco2)c1 ?
Output: no (0)
